- Tested on: 282377-053-R-J1-PDC complex spheroid viability
- Assay Remarks: Anticancer human tumor 282377-053-R-J1-PDC patient-derived colon adenocarcinoma cell line growth inhibition [POLQ]
- Condition Description: curve of first compound; second compound 0.0316 µM
Each item that follows carries a reported IC50.
Output spec: scalar in nM, unitless text.

Exercise: Return IC50 measured with 282377-053-R-J1-PDC complex spheroid viability given this molecule: COc1cccc(OCCCN)c1-c1cc(Nc2cnc(C#N)cn2)n[nH]1 + Cc1cccc(N(C)C(=O)C2C(O)CCN2c2nc(C)cc(C(F)(F)F)c2C#N)c1
Solution: 632

Exercise: So what IC50 did COc1cccc2c1C(=O)c1c(O)c3c(c(O)c1C2=O)CC(O)(C(=O)CO)CC3OC1CC(N)C(O)C(C)O1 (stereo not given) + COC1C(OC(N)=O)C(O)C(Oc2ccc3c(O)c(NC(=O)c4ccc(O)c(CC=C(C)C)c4)c(=O)oc3c2C)OC1(C)C get with 282377-053-R-J1-PDC complex spheroid viability?
Solution: 273

* * *

- Tested on: 282377-053-R-J1-PDC complex spheroid viability
- Assay Remarks: Anticancer human tumor 282377-053-R-J1-PDC cell line growth inhibition [POLQ];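 note: spheroids exposed to compounds for seven days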
- Condition Description: curve of first compound; second compound 0.0316 µM
Readout Label: IC50

Exercise: Tell me the measured IC50 of CC[C@@]1(O)C(=O)OCc2c1cc1n(c2=O)Cc2cc3c(CN(C)C)c(O)ccc3nc2-1 + COC1C(OC(N)=O)C(O)C(Oc2ccc3c(O)c(NC(=O)c4ccc(O)c(CC=C(C)C)c4)c(=O)oc3c2C)OC1(C)C , please.
Solution: > 0.1 µM

Exercise: I am curious: what IC50 value has been reported for CC(=O)O[C@H]1C(=O)[C@@]2(C)[C@H]([C@H](OC(=O)c3ccccc3)[C@]3(O)C[C@H](OC(=O)[C@H](O)[C@@H](NC(=O)c4ccccc4)c4ccccc4)C(C)=C1C3(C)C)[C@]1(OC(C)=O)CO[C@@H]1C[C@@H]2O + Nc1ccc(C#CCN(C(=O)Cc2ncc(C(F)(F)F)cc2C(F)(F)F)c2ccc(F)cc2)nn1 ?
Solution: > 3 µM

Exercise: Quick one: IC50 of COc1ccc([C@@H](O)c2cc(-c3ncnc4cc(N5CCOCC5)ccc34)c(F)cc2Cl)nn1 + COC1C(OC(N)=O)C(O)C(Oc2ccc3c(O)c(NC(=O)c4ccc(O)c(CC=C(C)C)c4)c(=O)oc3c2C)OC1(C)C ?
Solution: > 10 µM

Exercise: # get_value(readout='IC50', item= C=CC(=O)N1CCN(c2nc(=O)n(-c3c(C)ccnc3C(C)C)c3nc(-c4c(O)cccc4F)c(F)cc23)C(C)C1 (centres undefined) + Nc1ccc(C#CCN(C(=O)Cc2ncc(C(F)(F)F)cc2C(F)(F)F)c2ccc(F)cc2)nn1 )
Solution: > 10 µM

Exercise: Requested read-out: IC50. Entry: CC(=O)O[C@H]1C(=O)[C@@]2(C)[C@H]([C@H](OC(=O)c3ccccc3)[C@]3(O)C[C@H](OC(=O)[C@H](O)[C@@H](NC(=O)c4ccccc4)c4ccccc4)C(C)=C1C3(C)C)[C@]1(OC(C)=O)CO[C@@H]1C[C@@H]2O + COC1C(OC(N)=O)C(O)C(Oc2ccc3c(O)c(NC(=O)c4ccc(O)c(CC=C(C)C)c4)c(=O)oc3c2C)OC1(C)C
Solution: < 0.00949 µM

Exercise: // lookup IC50 for COc1cc2cc(C(=O)CCC(=O)O)sc2cc1OC + Cc1cccc(N(C)C(=O)C2C(O)CCN2c2nc(C)cc(C(F)(F)F)c2C#N)c1
Solution: > 10 µM

More entries:
Exercise: Recorded IC50 of CCc1cc2c(N3CCc4c(cc(Cn5ccnc5)cc4-c4cn(C)nc4C(F)(F)F)C3=O)ccnc2c(OC)n1 + Cc1cccc(N(C)C(=O)C2C(O)CCN2c2nc(C)cc(C(F)(F)F)c2C#N)c1 , please.
Solution: > 10 µM

Exercise: For the compound shown here, CC1COCCN1c1cc(C2(S(C)(=N)=O)CC2)nc(-c2ccnc3[nH]ccc23)n1 (centres undefined) + Cc1cccc(N(C)C(=O)C2C(O)CCN2c2nc(C)cc(C(F)(F)F)c2C#N)c1 , give the reported IC50.
Solution: 7.38 µM

Exercise: # get_value(readout='IC50', item= C=CC(=O)N1CCN(c2nc(=O)n(-c3c(C)ccnc3C(C)C)c3nc(-c4c(O)cccc4F)c(F)cc23)C(C)C1 (centres undefined) + COC1C(OC(N)=O)C(O)C(Oc2ccc3c(O)c(NC(=O)c4ccc(O)c(CC=C(C)C)c4)c(=O)oc3c2C)OC1(C)C )
Solution: > 10 µM

* * *

- Test system: 282377-053-R-J1-PDC complex spheroid viability
- Assay Remarks: Anticancer human tumor 282377-053-R-J1-PDC cell line growth inhibition [POLQ];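 note: spheroids exposed to compounds for seven days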;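 for viability, T/C: 100% = DMSO vehicle control viability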
- Condition Description: second compound 0.0316 µM; first compound 0.1 µM; stronger effect = lower value
Readout Label: viability, T/C (%)
Report only the number, with the unit % understood.

Recorded viability, T/C, per entry:
Exercise: For the molecule CC(C)n1c(=O)n(C)c2cnc3cc(F)c(-c4ccc(OCCCN5CCCCC5)nc4)cc3c21 + Cc1cccc(N(C)C(=O)C2C(O)CCN2c2nc(C)cc(C(F)(F)F)c2C#N)c1 , what viability, T/C is on record?
Solution: 129

Exercise: Which viability, T/C is listed for O=C(c1cc(Cc2n[nH]c(=O)c3ccccc23)ccc1F)N1CCN(C(=O)C2CC2)CC1 + Cc1cccc(N(C)C(=O)C2C(O)CCN2c2nc(C)cc(C(F)(F)F)c2C#N)c1 ?
Solution: 107

Exercise: viability, T/C for C=CC(=O)N1CCN(c2nc(=O)n(-c3c(C)ccnc3C(C)C)c3nc(-c4c(O)cccc4F)c(F)cc23)C(C)C1 (stereo unspecified) + Nc1ccc(C#CCN(C(=O)Cc2ncc(C(F)(F)F)cc2C(F)(F)F)c2ccc(F)cc2)nn1 ?
Solution: 107

Exercise: Which value of viability, T/C has been reported for O=c1[nH]cc(F)c(=O)[nH]1 + Nc1ccc(C#CCN(C(=O)Cc2ncc(C(F)(F)F)cc2C(F)(F)F)c2ccc(F)cc2)nn1 in the records?
Solution: 107

Exercise: Name the recorded viability, T/C for CCCS(=O)(=O)Nc1ccc(F)c(C(=O)c2c[nH]c3ncc(-c4ccc(Cl)cc4)cc23)c1F + COC1C(OC(N)=O)C(O)C(Oc2ccc3c(O)c(NC(=O)c4ccc(O)c(CC=C(C)C)c4)c(=O)oc3c2C)OC1(C)C .
Solution: 77.1

Further cases:
Exercise: Which measured viability, T/C value corresponds to C=CCn1c(=O)c2cnc(Nc3ccc(N4CCN(C)CC4)cc3)nc2n1-c1cccc(C(C)(C)O)n1 + COC1C(OC(N)=O)C(O)C(Oc2ccc3c(O)c(NC(=O)c4ccc(O)c(CC=C(C)C)c4)c(=O)oc3c2C)OC1(C)C ?
Solution: 120

Exercise: I have this molecule here, C#Cc1c(F)ccc2cc(O)cc(-c3ncc4c(N5CC6CCC(C5)N6)nc(OCC56CCCN5CC(F)C6)nc4c3F)c12 (stereo unspecified) + Cc1cccc(N(C)C(=O)C2C(O)CCN2c2nc(C)cc(C(F)(F)F)c2C#N)c1 , and I need its recorded viability, T/C.
Solution: 84

Exercise: Endpoint output: viability, T/C of CCc1cc2c(N3CCc4c(cc(Cn5ccnc5)cc4-c4cn(C)nc4C(F)(F)F)C3=O)cc(C)nc2c(OC)n1 + Nc1ccc(C#CCN(C(=O)Cc2ncc(C(F)(F)F)cc2C(F)(F)F)c2ccc(F)cc2)nn1 . Value?
Solution: 81.5

Exercise: Can you look up the measured viability, T/C of COc1cc2cc(C(=O)CCC(=O)O)sc2cc1OC + Nc1ccc(C#CCN(C(=O)Cc2ncc(C(F)(F)F)cc2C(F)(F)F)c2ccc(F)cc2)nn1 for me?
Solution: 94.8

Exercise: Could you share which viability, T/C value was measured for Nc1ccn(C2OC(CO)C(O)C2(F)F)c(=O)n1 (stereo unspecified) + COC1C(OC(N)=O)C(O)C(Oc2ccc3c(O)c(NC(=O)c4ccc(O)c(CC=C(C)C)c4)c(=O)oc3c2C)OC1(C)C ?
Solution: 41.5

Exercise: What value of measured viability, T/C is listed for COc1cccc(OCCCN)c1-c1cc(Nc2cnc(C#N)cn2)n[nH]1 + Cc1cccc(N(C)C(=O)C2C(O)CCN2c2nc(C)cc(C(F)(F)F)c2C#N)c1 ?
Solution: 74.5

* * *

Overview of reported viability, T/C across a group of compounds:
- System: 282377-053-R-J1-PDC complex spheroid viability
- Assay Remarks: Anticancer human tumor 282377-053-R-J1-PDC cell line growth inhibition [POLQ];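 note: spheroids exposed to compounds for seven days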;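 for viability, T/C: 100% = DMSO vehicle control viability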
- Condition Description: second compound 10 µM; first compound 0.1 µM; stronger effect = lower value
Write it as a number; the unit % goes unstated.

Exercise: I would be grateful if you could share the reported viability, T/C for CC1COCCN1c1cc(C2(O)CC3CCC(C2)O3)c2cnn(-c3ccn[nH]3)c2n1 (stereo not drawn) + Cc1cccc(N(C)C(=O)C2C(O)CCN2c2nc(C)cc(C(F)(F)F)c2C#N)c1 .
Solution: 66.1

Exercise: Bench note: what viability, T/C did COc1cccc2c1C(=O)c1c(O)c3c(c(O)c1C2=O)CC(O)(C(=O)CO)CC3OC1CC(N)C(O)C(C)O1 (stereo not drawn) + Cc1cccc(N(C)C(=O)C2C(O)CCN2c2nc(C)cc(C(F)(F)F)c2C#N)c1 show?
Solution: 89.8

Continuing:
Exercise: Could you tell me which viability, T/C is on file for C=CCn1c(=O)c2cnc(Nc3ccc(N4CCN(C)CC4)cc3)nc2n1-c1cccc(C(C)(C)O)n1 + Nc1ccc(C#CCN(C(=O)Cc2ncc(C(F)(F)F)cc2C(F)(F)F)c2ccc(F)cc2)nn1 ?
Solution: 94.7
